log10(IC50) for assorted compounds
- measured target: ErbB2 with Exon 20 YVMA insertion (HER2-YVMA) (Homo sapiens (Human), UniProt P04626, INS775YVMA)
- Sequence (P04626 other isoform, or with tags, fused parts or gaps ins YVMA behind 775): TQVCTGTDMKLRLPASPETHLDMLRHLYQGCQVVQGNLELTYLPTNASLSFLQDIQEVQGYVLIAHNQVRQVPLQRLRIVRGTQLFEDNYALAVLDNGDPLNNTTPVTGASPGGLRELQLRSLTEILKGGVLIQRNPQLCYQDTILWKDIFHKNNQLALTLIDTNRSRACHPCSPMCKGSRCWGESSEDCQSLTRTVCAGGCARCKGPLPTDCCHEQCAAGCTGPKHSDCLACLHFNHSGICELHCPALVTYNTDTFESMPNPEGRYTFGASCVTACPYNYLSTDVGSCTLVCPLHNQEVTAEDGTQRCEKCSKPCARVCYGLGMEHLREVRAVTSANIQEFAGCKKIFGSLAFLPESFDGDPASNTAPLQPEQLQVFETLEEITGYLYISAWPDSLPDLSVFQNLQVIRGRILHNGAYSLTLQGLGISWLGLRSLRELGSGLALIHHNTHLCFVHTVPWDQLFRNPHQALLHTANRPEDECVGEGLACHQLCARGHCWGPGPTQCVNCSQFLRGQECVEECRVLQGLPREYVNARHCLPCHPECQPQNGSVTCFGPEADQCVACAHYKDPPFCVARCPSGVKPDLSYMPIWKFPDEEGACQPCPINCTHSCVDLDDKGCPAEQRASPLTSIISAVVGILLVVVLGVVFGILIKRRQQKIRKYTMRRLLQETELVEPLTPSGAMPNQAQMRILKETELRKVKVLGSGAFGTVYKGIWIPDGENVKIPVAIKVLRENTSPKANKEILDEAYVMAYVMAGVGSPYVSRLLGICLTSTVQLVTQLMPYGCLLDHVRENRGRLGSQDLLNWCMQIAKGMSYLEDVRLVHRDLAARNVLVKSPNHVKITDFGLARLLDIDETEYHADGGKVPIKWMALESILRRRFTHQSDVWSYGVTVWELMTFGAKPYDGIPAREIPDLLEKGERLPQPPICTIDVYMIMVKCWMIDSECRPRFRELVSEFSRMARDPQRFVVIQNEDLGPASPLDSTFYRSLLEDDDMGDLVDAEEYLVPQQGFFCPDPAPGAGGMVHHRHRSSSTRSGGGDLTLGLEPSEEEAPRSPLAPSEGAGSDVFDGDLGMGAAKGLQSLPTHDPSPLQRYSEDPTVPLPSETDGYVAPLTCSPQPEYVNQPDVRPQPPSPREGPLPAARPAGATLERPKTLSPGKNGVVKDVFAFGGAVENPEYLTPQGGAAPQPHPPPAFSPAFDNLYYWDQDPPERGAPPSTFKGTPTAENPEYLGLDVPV
- experimental details: Cellular Phosphorylation Assay, Assay 4 (constitutive ErbB2 phosphorylation, NIH 3T3 cells)
- Type: cell-based
- condition info: cellular ErbB2 YVMA phosphorylation
property measured: log10(IC50) (log10 of the value in nM)

{"compound": "C=CC(=O)N1CC2(CCN2c2ccc3ncnc(Nc4ccc(Oc5ccn6ncnc6c5)c(C)c4F)c3n2)C1 [Example 289]", "property measured": "log10(IC50)", "endpoint value": 1.73}
{"compound": "C=CC(=O)N1[C@@H]2CC[C@H]1[C@H](c1ccc3ncnc(Nc4ccc(Oc5cnc6c(c5)ncn6C)c(C)c4F)c3n1)C2 [Example 419]", "property measured": "log10(IC50)", "endpoint value": 1.33}
{"compound": "C=CC(=O)N1CCN(c2ccc3ncnc(Nc4ccc(Oc5cnc6c(c5)ncn6C)c(C)c4F)c3n2)C[C@@H]1C(F)F (racemic) [Example 300]", "property measured": "log10(IC50)", "endpoint value": 0.98}
{"compound": "C=CC(=O)N1CCN(c2ccc3ncnc(Nc4ccc(Oc5ccn6ncnc6c5)cc4C(F)(F)F)c3n2)CC1(C)C [Example 448]", "property measured": "log10(IC50)", "endpoint value": 1.94}
{"compound": "C=CC(=O)N1CCCC(c2ccc3ncnc(Nc4ccc(Oc5ccn6ncnc6c5)c(C)c4)c3n2)CC1 (stereo not shown) [Example 401]", "property measured": "log10(IC50)", "endpoint value": 1.48}
{"compound": "C=CC(=O)N1CCN(c2ccc3ncnc(Nc4cc(Cl)c(Oc5ccn6ncnc6c5)cc4F)c3n2)C[C@H]1C(C)(C)C [Example 309]", "property measured": "log10(IC50)", "endpoint value": 1.21}
{"compound": "C#CC1CN(c2ccc3ncnc(Nc4ccc(Oc5ccn6ncnc6c5)c(C)c4F)c3n2)CCN1C(=O)C=C (stereo not shown) [Example 322]", "property measured": "log10(IC50)", "endpoint value": 1.18}
{"compound": "C=CC(=O)N1C[C@H]2CC[C@@H]1C[C@@H]2c1ccc2ncnc(Nc3cc(C)c(Oc4cnc5c(c4)ncn5C)cc3F)c2n1 [Example 420]", "property measured": "log10(IC50)", "endpoint value": 1.53}
{"compound": "C=CC(=O)N1C[C@H]2CC[C@@H]1[C@@H](c1ccc3ncnc(Nc4ccc(Oc5ccn6ncnc6c5)c(C)c4F)c3n1)C2 [Example 398]", "property measured": "log10(IC50)", "endpoint value": 1.87}
{"compound": "C=CC(=O)N1CCN(c2ccc3ncnc(Nc4ccc(Oc5ccn6ncnc6c5)c(Cl)c4F)c3n2)C[C@@H]1COC [Example 348]", "property measured": "log10(IC50)", "endpoint value": 0.91}
{"compound": "C=CC(=O)N1CC2CC(C1)N2c1ccc2ncnc(Nc3ccc(Oc4ccc5c(c4)ncn5C)c(C)c3F)c2n1 [Example 335]", "property measured": "log10(IC50)", "endpoint value": 1.19}
{"compound": "C=CC(=O)N1C[C@H]2CC[C@@H]1C[C@H]2c1ccc2ncnc(Nc3cc(C)c(Oc4cnc5c(c4)ncn5C)cc3F)c2n1 [Example 421]", "property measured": "log10(IC50)", "endpoint value": 1.97}
{"compound": "C=CC(=O)N1CCN(c2ccc3ncnc(Nc4ccc(Oc5ccc6c(c5)ncn6C)c(C(F)F)c4)c3n2)CC1 [Example 447]", "property measured": "log10(IC50)", "endpoint value": 1.24}
